- Test system: CD2F1 mice, L1210 leukemia ip, survival T/C
- Procedure details: NCI In Vivo Anticancer Drug Screen. Data for tumor model L1210 Leukemia (intraperitoneal) in CD2F1 (CDF1) mice
- Conditions used: endpoint: mean survival time; dose: 400.0 mg/kg/injection; schedule: Q01DX009 (ip); vehicle: saline; higher = longer survival
Toxic doses and inconclusive results are not listed.
Below: a set of entries, each annotated with reported T/C.

Look over these answered cases.
[[record]]
compound = "Cc1cc(O)c(N=Nc2ccc(C(=O)O)cc2)cc1C"
result_value = "93 % of control"

[[record]]
compound = "O=CC(O)C(O)C(O)C(O)CO (stereo unspecified)"
result_value = "95 % of control"

[[record]]
compound = "COC(=O)C(NC=O)C(=O)OC"
result_value = "117 % of control"

[[record]]
compound = "CCCCCCCCCCC(N)C(=O)O (stereo unspecified)"
result_value = "95 % of control"

[[record]]
compound = "C[C@]12C=CC(=O)C=C1CC[C@@H]1[C@@H]2C(=O)C[C@@]2(C)[C@H]1CC[C@]2(O)C(=O)CO"
result_value = "103 % of control"


Task item: API: value(readout=T/C, system=CD2F1 mice, L1210 leukemia ip, survival T/C) for record CC(C)CC(NC(=O)C(CSC(c1ccccc1)(c1ccccc1)c1ccccc1)NC(c1ccccc1)(c1ccccc1)c1ccccc1)C(=O)O (stereo unspecified)
Reply: 91 % of control

Task item: API: value(readout=T/C, system=CD2F1 mice, L1210 leukemia ip, survival T/C) for record c1ccc2c(c1)[nH]c1nc3ncncc3nc12
Reply: 112 % of control

Task item: API: value(readout=T/C, system=CD2F1 mice, L1210 leukemia ip, survival T/C) for record NC(=O)CC(N)CO (stereo unspecified)
Reply: 98 % of control

Task item: API: value(readout=T/C, system=CD2F1 mice, L1210 leukemia ip, survival T/C) for record O=C(C(=O)c1ccccc1)c1ccccc1
Reply: 108 % of control

Task item: API: value(readout=T/C, system=CD2F1 mice, L1210 leukemia ip, survival T/C) for record Cc1c(NCO)c(=O)n(-c2ccccc2)n1C
Reply: 105 % of control

Task item: API: value(readout=T/C, system=CD2F1 mice, L1210 leukemia ip, survival T/C) for record O=C(c1ccccc1Cl)c1cccc2ccccc12
Reply: 94 % of control
